Target: WNV MTase (West Nile virus)
Construct: containing the N-terminal 300, 266, 265, and 272 amino acids of NS5 protein, respectively; made in house
Test: biochemical
pIC50: −log10 of the molar value.
Consider the following compounds; for each one, report its pIC50.

Would you please look over these solved cases?
                                   compound  assay_result
0  COc1ccc2cc1Oc1ccc(cc1)CC1c3c(cc(OC)c4c3Oc3cc5c(cc3O4)CCNC5C2)CCN1C (stereo not drawn)        < 3.52
1  O=C1CN2CCN(CC2)CC(=O)Nc2ccc(cc2)S(=O)(=O)c2ccc(cc2)NC(=O)CN2CCN(CC2)CC(=O)Nc2ccc(cc2)S(=O)(=O)c2ccc(cc2)N1        < 3.52

Kindly consider the entry below.
Req: Fill blank: measured pIC50 of the compound CC1=C(Nc2c(C)cc(O)cc2O)C(=O)C=c2oc3c(c21)C(C)=C(Nc1c(C)cc(O)cc1O)C(=O)C=3 is ____.
Resp: 5.25

###

Answer each item with its documented pIC50.
Target: WNV MTase (West Nile virus)
Construct: containing the N-terminal 300, 266, 265, and 272 amino acids of NS5 protein, respectively; made in house
Assay: biochemical
Type: biochemical
Details: read-out: IC50 N7 with CHAPS
Answers are plain numbers, as −log10 of the molar value.

Provide reported pIC50 for each item, in the same order as listed.
1. Cc1nn(-c2ccc(S(=O)(=O)[O-])cc2)c([O-])c1N=Nc1ccc(-c2ccc(N=Nc3ccc4c(S(=O)(=O)[O-])cc(S(=O)(=O)[O-])c(N)c4c3[O-])c([O-])c2)cc1[O-].[Cu+2].[Cu+2].[H+].[H+].[H+]
2. Ic1ccc2c(c1)N(c1ccccc1)c1cc(Nc3ccc4c(c3)N(c3ccccc3)c3cc(I)ccc3N4)ccc1N2

Resp:
1. 5.64
2. 4.51

###

Test system: BHK-21 cells
Assay: MTT cell proliferation cytotoxicity assay
Assay type: cell-based
Conditions: BHK-21 cells, MTT, 42 hours
readout.name: CC50
Param answer (str): number followed by unit.

structure.smiles	assay.result
Cc1ccc(NC(=O)c2cc3ccccc3cc2O)c(C)c1.Cc1ccc(NC(=O)c2cc3ccccc3cc2O)c(C)c1.[Ni]	32 µM

Req: What does the data say about its CC50? Entry: Cc1nn(-c2ccc(S(=O)(=O)[O-])cc2)c([O-])c1N=Nc1ccc(-c2ccc(N=Nc3ccc4c(S(=O)(=O)[O-])cc(S(=O)(=O)[O-])c(N)c4c3[O-])c([O-])c2)cc1[O-].[Cu+2].[Cu+2].[H+].[H+].[H+]
Resp: 332 µM

###

Biological target: WNV MTase (West Nile virus, UniProt Q9Q6P4)
Construct: containing the N-terminal 300, 266, 265, and 272 amino acids of NS5 protein, respectively; made in house
Sequence (Q9Q6P4 2529-2794 limits assumed): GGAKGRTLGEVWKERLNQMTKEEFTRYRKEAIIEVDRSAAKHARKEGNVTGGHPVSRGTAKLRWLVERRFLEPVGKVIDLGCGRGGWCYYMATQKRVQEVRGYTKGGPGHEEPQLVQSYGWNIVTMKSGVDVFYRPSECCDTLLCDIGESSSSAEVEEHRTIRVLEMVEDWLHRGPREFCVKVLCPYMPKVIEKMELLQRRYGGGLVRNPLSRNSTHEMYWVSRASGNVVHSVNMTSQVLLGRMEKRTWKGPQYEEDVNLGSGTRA
Test: biochemical
Format: biochemical
Conditions: IC50 N7 with CHAPS
What pIC50 was measured for each of the following?
Numbers only, as −log10 of the molar value.

Reference set, count: 2
>>> df
                                   compound                       experimental_system  assay_result
0  CN1CCN(c2ccc3[nH]c(-c4ccc5[nH]c(-c6ccc(O)cc6)nc5c4)nc3c2)CC1  WNV MTase (West Nile virus, UniProt Q9Q6P4)          4.58
1  O=C1c2ccccc2C(=O)c2c1ccc(N1C(=O)c3ccccc3C1=O)c2-c1c(N2C(=O)c3ccccc3C2=O)ccc2c1C(=O)c1ccccc1C2=O  WNV MTase (West Nile virus, UniProt Q9Q6P4)          3.65

Take each entry in turn and give its pIC50.
1. O=C1CN2CCN(CC2)CC(=O)Nc2ccc(cc2)S(=O)(=O)c2ccc(cc2)NC(=O)CN2CCN(CC2)CC(=O)Nc2ccc(cc2)S(=O)(=O)c2ccc(cc2)N1
2. COc1ccc2cc1Oc1ccc(cc1)CC1c3c(cc(OC)c4c3Oc3cc5c(cc3O4)CCNC5C2)CCN1C (centres unmarked)
3. CC1=C(Nc2c(C)cc(O)cc2O)C(=O)C=c2oc3c(c21)C(C)=C(Nc1c(C)cc(O)cc1O)C(=O)C=3

Resp:
4.45
4.46
4.74
